biological target: human PDE9A2 (Homo sapiens, UniProt O76083); construct: made in house; host or cells: Sf9 insect cells (infected); crude lysate used as enzyme source; assay: PDE9A2 enzymatic activity assay (scintillation proximity assay, SPA); type: biochemical; settings: read-out: % inhibition of PDE9A2 (at 10 micromolar concentration), 10 micromolar concentration; values above 100% adjusted to 100%
Sequence (O76083 1-533 isoform O76083-2): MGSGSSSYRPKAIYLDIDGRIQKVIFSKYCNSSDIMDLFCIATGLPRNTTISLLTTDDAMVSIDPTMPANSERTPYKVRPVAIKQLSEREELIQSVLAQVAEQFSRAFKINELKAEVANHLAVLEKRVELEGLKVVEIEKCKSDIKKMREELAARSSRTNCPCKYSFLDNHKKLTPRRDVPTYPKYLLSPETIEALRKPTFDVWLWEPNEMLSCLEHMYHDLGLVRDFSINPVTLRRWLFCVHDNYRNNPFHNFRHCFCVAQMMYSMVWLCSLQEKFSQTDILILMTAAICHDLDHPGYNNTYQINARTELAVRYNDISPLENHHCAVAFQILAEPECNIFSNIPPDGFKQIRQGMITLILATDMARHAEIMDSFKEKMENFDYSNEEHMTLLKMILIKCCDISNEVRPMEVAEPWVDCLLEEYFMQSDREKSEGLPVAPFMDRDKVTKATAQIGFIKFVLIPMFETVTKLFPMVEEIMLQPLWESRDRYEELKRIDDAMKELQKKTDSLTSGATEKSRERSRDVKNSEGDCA
Readout name: inhibition at 10 µM (%)
Write the value in % as a bare number.

O=c1[nH]c(CC2CCOC2)nc2c1cnn2C1CCOC1 (mixture of isomers) : 78
CCC(Cc1nc2c(cnn2C2CCOCC2)c(=O)[nH]1)C(F)(F)F (single isomer, unassigned) [Example 61] : 97
O=c1[nH]c(Cc2ccccc2O)nc2c1cnn2C1CCOCC1 : 98
CN1CCC(n2ncc3c(=O)[nH]c(Cc4ccccc4OC(F)(F)F)nc32)CC1 : 90
O=c1[nH]c(CC2CCC2)nc2c1cnn2C1CCOC1 (single isomer, unassigned) [Example 132-6] : 99
O=c1[nH]c(CC2CCC(F)(F)CC2)nc2c1cnn2C1CCOCC1 : 97
O=c1[nH]c(CC2CC2)nc2c1cnn2C1CC[S+]([O-])CC1 (centres unmarked) : 93

Next:
Q) Returns the measured inhibition at 10 µM for the input molecule. Input: CN1CCCC(n2ncc3c(=O)[nH]c(CC4CCCC4)nc32)C1 (racemic)
A) 100
